- Tested on: Staphylococcus epidermidis
- METHOD: In vitro antibacterial activity against Staphylococcus epidermidis 222
- Type: functional
OBSERVABLE: MIC (µg/mL)
Report only the number, with the unit µg/mL understood.

• N#CC1=C(C(=O)O)N2C(=O)[C@@H](NC(=O)/C(=N/OCCCl)c3csc(N)n3)CN2C1 = 16
• N#CC1=C(C(=O)O)N2C(=O)[C@@H](NC(=O)Cc3cccs3)CN2C1 = 32
• CS(=O)(=O)C1=C(C(=O)O)N2C(=O)[C@@H](NC(=O)/C(=N/OCCCl)c3csc(N)n3)CN2C1 = 32

Incoming: Need MIC of "CS(=O)(=O)C1=C(C(=O)O)N2C(=O)[C@@H](NC(=O)/C(=N/OCCCCCl)c3csc(N)n3)CN2C1" , thanks.
Outgoing: 32

Incoming: Need MIC of "Nc1nc(/C(=N\OCCCl)C(=O)N[C@H]2CN3CC(S(=O)(=O)Cc4ccccc4)=C(C(=O)O)N3C2=O)cs1" , thanks.
Outgoing: 16

Incoming: Need MIC of "CCS(=O)(=O)C1=C(C(=O)O)N2C(=O)[C@@H](NC(=O)/C(=N/OCSC)c3csc(N)n3)CN2C1" , thanks.
Outgoing: 64

Incoming: Need MIC of "N#CC1=C(C(=O)O)N2C(=O)[C@@H](NC(=O)Cc3ccccc3)CN2C1" , thanks.
Outgoing: 32

Incoming: Need MIC of "CCS(=O)(=O)C1=C(C(=O)O)N2C(=O)[C@@H](NC(=O)/C(=N/OCCF)c3csc(N)n3)CN2C1" , thanks.
Outgoing: 32

Incoming: Need MIC of "CCCCO/N=C(/C(=O)N[C@H]1CN2CC(C#N)=C(C(=O)O)N2C1=O)c1csc(N)n1" , thanks.
Outgoing: 16

* * *

- System: Staphylococcus epidermidis
- METHOD: In vitro antibacterial activity against Staphylococcus epidermidis 222
- Assay type: functional
Recorded MIC, one value per entry.
Report only the number, with the unit µg/mL understood.

Consider the following illustrative entries.
* N#CC1=C(C(=O)O)N2C(=O)[C@@H](NC(=O)/C(=N/OCCBr)c3csc(N)n3)CN2C1 | 4
* CCS(=O)(=O)C1=C(C(=O)O)N2C(=O)[C@@H](NC(=O)/C(=N/OCC3CC3)c3csc(N)n3)CN2C1 | 32
* CS(=O)(=O)C1=C(C(=O)O)N2C(=O)[C@@H](NC(=O)/C(=N/OCCBr)c3csc(N)n3)CN2C1 | 8
* CS(=O)(=O)C1=C(C(=O)O)N2C(=O)[C@@H](NC(=O)/C(=N/OCCCF)c3csc(N)n3)CN2C1 | 16
* CCCS(=O)(=O)C1=C(C(=O)O)N2C(=O)[C@@H](NC(=O)/C(=N/OCC(F)(F)F)c3csc(N)n3)CN2C1 | 32
* CCCO/N=C(/C(=O)N[C@H]1CN2CC(S(=O)(=O)CCC)=C(C(=O)O)N2C1=O)c1csc(N)n1 | 32
* C=CCO/N=C(/C(=O)N[C@H]1CN2CC(C#N)=C(C(=O)O)N2C1=O)c1csc(N)n1 | 16
* C=CCCO/N=C(/C(=O)N[C@H]1CN2CC(S(C)(=O)=O)=C(C(=O)O)N2C1=O)c1csc(N)n1 | 8

Attention now shifts to the item below.
Incoming: Need MIC of "CS(=O)(=O)C1=C(C(=O)O)N2C(=O)[C@@H](NC(=O)/C(=N/OCC#N)c3csc(N)n3)CN2C1" , thanks.
Outgoing: 128

Reference source: ChEMBL document CHEMBL1126865
